Each record here notes measured IC50.
- study target: HLA‐A2 (Homo sapiens, UniProt P04439, D140Y/D185E/D98H/E176V/E277Q/G131W/G231S/I119V/I121R/I166T/I218V/L300P/L318F/N151K/N90K/P208A/P217A/Q86G/Q94H/R138H/R169H/T345S)
- Construct: host or cells: BSM cells (HLA-A2+, HPV16-negative suspension cell line)
- test: In vitro competition-based cellular binding assay
- stated conditions: acid-stripped BSM cells, β2M, 150 nM fluorescein-labeled reference peptide FLPSDC(Fl)FPSV, test peptide 0.78–100 μM, overnight 4 °C, flow cytometry; mean of at least three experimental replicates; read-out: Experimental binding affinity [IC50(μM)]
Where a SMILES comes first, the peptide text is derived from it.
Write the number in µM without appending the unit.

The cases that follow already have their IC50 on record.
CSCC[C@H](NC(=O)[C@H](CC(C)C)NC(=O)[C@H](CC(C)C)NC(=O)[C@H](CC(=O)O)NC(=O)[C@H](CCC(=O)O)NC(=O)[C@H](CC(C)C)NC(=O)[C@@H](NC(=O)[C@@H](N)CCCNC(=N)N)[C@@H](C)O)C(=O)NCC(=O)N[C@H](C(=O)N[C@@H](CC(C)C)C(=O)O)[C@@H](C)O [E7_77–87] (H-RTLEDLLMGTL-OH) : 2.69
CSCC[C@H](NC(=O)[C@H](CC(C)C)NC(=O)[C@H](CC(C)C)NC(=O)[C@H](CC(=O)O)NC(=O)[C@H](CCC(=O)O)NC(=O)[C@H](CC(C)C)NC(=O)[C@@H](NC(=O)[C@@H](N)CCCNC(=N)N)[C@@H](C)O)C(=O)NCC(=O)N[C@H](C(=O)O)[C@@H](C)O [E7_77–86] : 66.9
CSCC[C@H](NC(=O)[C@H](CC(C)C)NC(=O)[C@H](CC(C)C)NC(=O)[C@H](CC(=O)O)NC(=O)[C@H](CCC(=O)O)NC(=O)[C@H](CC(C)C)NC(=O)[C@@H](N)[C@@H](C)O)C(=O)NCC(=O)N[C@H](C(=O)O)[C@@H](C)O [E7_78–86] (H-TLEDLLMGT-OH) : 64.6
CC[C@H](C)[C@H](NC(=O)CNC(=O)[C@H](CC(C)C)NC(=O)[C@@H](NC(=O)CNC(=O)[C@H](CCSC)NC(=O)[C@H](CC(C)C)NC(=O)[C@H](CC(C)C)NC(=O)[C@@H](N)CC(=O)O)[C@@H](C)O)C(=O)N[C@H](C(=O)O)C(C)C [E7_81–90] (H-DLLMGTLGIV-OH) : 81
CC[C@H](C)[C@H](N)C(=O)N[C@@H](CCCNC(=N)N)C(=O)N[C@H](C(=O)N[C@@H](CC(C)C)C(=O)N[C@@H](CCC(=O)O)C(=O)N[C@@H](CC(=O)O)C(=O)N[C@@H](CC(C)C)C(=O)N[C@@H](CC(C)C)C(=O)N[C@@H](CCSC)C(=O)NCC(=O)N[C@H](C(=O)O)[C@@H](C)O)[C@@H](C)O [E7_76–86] (H-IRTLEDLLMGT-OH) : 31.9
CSCC[C@H](N)C(=O)N[C@@H](CC(C)C)C(=O)N[C@@H](CC(=O)O)C(=O)N[C@@H](CC(C)C)C(=O)N[C@@H](CCC(N)=O)C(=O)N1CCC[C@H]1C(=O)N[C@@H](CCC(=O)O)C(=O)N[C@H](C(=O)O)[C@@H](C)O [E7_12–19] (H-MLDLQPET-OH) : 53.7

INPUT: I would be grateful if you could share the reported IC50 for CSCC[C@H](NC(=O)[C@H](Cc1ccc(O)cc1)NC(=O)[C@@H](N)CCC(=O)O)C(=O)N[C@@H](CC(C)C)C(=O)N[C@@H](CC(=O)O)C(=O)N[C@@H](CC(C)C)C(=O)N[C@@H](CCC(N)=O)C(=O)N1CCC[C@H]1C(=O)N[C@@H](CCC(=O)O)C(=O)N[C@H](C(=O)O)[C@@H](C)O [E7_10–19] .
OUTPUT: 45.3
